Provenance of the data: ChEMBL document CHEMBL5625225

- measuredOn: Stimulator of interferon genes protein (Homo sapiens)
- procedureSummary: Agonist activity at wild type STING (unknown origin) expressed in HEK293T cells measured after 7 hrs by Bright-glo luciferase assay
- Assay type: cell-based
readoutType: EC50 (µM)

{"molecule": "CC(C)OC(=O)OCOP1(=O)/C=C/[C@H]2O[C@@H](n3cnc4c(N)ncnc43)[C@H](F)[C@@H]2OP(=O)(OCOC(=O)OC(C)C)OC[C@H]2O[C@@H](n3cnc4c(N)ncnc43)[C@H](F)[C@@H]2O1 (stereo in doubt; 12A)", "measuredOn": "Stimulator of interferon genes protein (Homo sapiens)", "readoutType": "EC50", "assayValue": 9.5}
{"molecule": "CC(C)OC(=O)OCOP1(=O)/C=C/[C@H]2O[C@@H](n3cnc4c(N)ncnc43)[C@H](F)[C@@H]2OP(=O)(OCOC(=O)OC(C)C)OC[C@H]2O[C@@H](n3cnc4c(N)ncnc43)[C@H](F)[C@@H]2O1 (stereo in doubt; 12C)", "measuredOn": "Stimulator of interferon genes protein (Homo sapiens)", "readoutType": "EC50", "assayValue": 0.07}
{"molecule": "Nc1ncnc2c1ncn2[C@@H]1O[C@@H]2/C=C/P(=O)(O)O[C@H]3C[C@H](n4cnc5c(N)ncnc54)O[C@@H]3COP(=O)(O)O[C@H]2[C@H]1F", "measuredOn": "Stimulator of interferon genes protein (Homo sapiens)", "readoutType": "EC50", "assayValue": 71.7}
{"molecule": "CCCCCCCC(=O)OCOP1(=O)/C=C/[C@H]2O[C@@H](n3cnc4c(N)ncnc43)[C@H](F)[C@@H]2OP(=O)(OCOC(=O)CCCCCCC)OC[C@H]2O[C@@H](n3cnc4c(N)ncnc43)[C@H](F)[C@@H]2O1 (stereo in doubt; 15B)", "measuredOn": "Stimulator of interferon genes protein (Homo sapiens)", "readoutType": "EC50", "assayValue": 0.003}

* * *

Known pEC50 of a selection of molecules
- measuredOn: Stimulator of interferon genes protein (Homo sapiens, UniProt Q86WV6, R293Q)
- Sequence (Q86WV6 whole entry R293Q): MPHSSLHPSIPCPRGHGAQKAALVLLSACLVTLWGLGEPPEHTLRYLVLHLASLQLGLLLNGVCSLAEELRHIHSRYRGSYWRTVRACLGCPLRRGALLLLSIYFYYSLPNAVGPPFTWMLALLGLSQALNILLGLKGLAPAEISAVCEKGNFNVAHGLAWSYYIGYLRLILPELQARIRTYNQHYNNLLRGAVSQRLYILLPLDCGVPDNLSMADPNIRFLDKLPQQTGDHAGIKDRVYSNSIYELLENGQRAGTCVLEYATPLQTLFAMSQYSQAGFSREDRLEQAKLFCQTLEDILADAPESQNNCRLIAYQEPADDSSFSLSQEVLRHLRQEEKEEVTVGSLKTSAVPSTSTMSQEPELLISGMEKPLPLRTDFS
- procedureSummary: Agonist activity at STING R293Q mutant (unknown origin) expressed in digitonin -permeabilized HEK293T cells preincubated for 30 mins followed by washout and measured after 5 hrs by Bright-glo luciferase assay
pEC50: −log10 of the molar value.

{"molecule": "Nc1ncnc2c1ncn2[C@@H]1O[C@@H]2COP(=O)(O)O[C@H]3C[C@H](n4cnc5c(N)ncnc54)O[C@@H]3/C=C/P(=O)(O)O[C@H]2[C@H]1F", "limitQualifier": "=", "pEC50": 5.18}
{"molecule": "Nc1nc2c(ncn2[C@H]2C[C@@H]3OP(=O)(O)OC[C@H]4O[C@@H](n5cnc6c(N)ncnc65)C[C@@H]4OP(=O)(O)/C=C/[C@H]3O2)c(=O)[nH]1", "limitQualifier": "<", "pEC50": 4.35}
{"molecule": "Nc1ncnc2c1ncn2[C@@H]1O[C@@H]2/C=C\\P(=O)(O)O[C@H]3[C@@H](F)[C@H](n4cnc5c(N)ncnc54)O[C@@H]3COP(=O)(O)O[C@H]2[C@H]1F", "limitQualifier": "=", "pEC50": 5.98}
{"molecule": "Nc1nc2c(ncn2[C@@H]2O[C@@H]3/C=C/P(=O)(O)O[C@H]4[C@@H](F)[C@H](n5cnc6c(=O)[nH]c(N)nc65)O[C@@H]4COP(=O)(O)O[C@H]3[C@H]2F)c(=O)[nH]1", "limitQualifier": "=", "pEC50": 5.06}
{"molecule": "Nc1nc2c(ncn2[C@@H]2O[C@@H]3/C=C/P(=O)(O)O[C@H]4[C@@H](F)[C@H](n5cnc6c(N)ncnc65)O[C@@H]4COP(=O)(O)O[C@H]3[C@H]2F)c(=O)[nH]1", "limitQualifier": "=", "pEC50": 6.34}
{"molecule": "Nc1ncnc2c1ncn2[C@@H]1O[C@@H]2/C=C/P(=O)(O)O[C@H]3C[C@H](n4cnc5c(N)ncnc54)O[C@@H]3COP(=O)(O)O[C@H]2[C@H]1F", "limitQualifier": "=", "pEC50": 5.82}

* * *

- measuredOn: Stimulator of interferon genes protein (Homo sapiens, UniProt Q86WV6, R293Q)
- procedureSummary: Agonist activity at STING R293Q mutant (unknown origin) expressed in digitonin -permeabilized HEK293T cells preincubated for 30 mins followed by washout and measured after 5 hrs by Bright-glo luciferase assay
Overview of reported EC50 across a group of compounds:

{"molecule": "Nc1nc2c(ncn2[C@H]2C[C@@H]3OP(=O)(O)/C=C/[C@H]4O[C@@H](n5cnc6c(N)ncnc65)C[C@@H]4OP(=O)(O)OC[C@H]3O2)c(=O)[nH]1", "EC50": "> 45 µM"}
{"molecule": "Nc1nc2c(ncn2[C@H]2C[C@@H]3OP(=O)(O)/C=C/[C@H]4O[C@@H](n5cnc6c(N)ncnc65)[C@H](F)[C@@H]4OP(=O)(O)OC[C@H]3O2)c(=O)[nH]1", "EC50": "2.95 µM"}
{"molecule": "Nc1nc2c(ncn2[C@@H]2O[C@@H]3COP(=O)(O)O[C@H]4C[C@H](n5cnc6c(N)ncnc65)O[C@@H]4/C=C/P(=O)(O)O[C@H]3[C@H]2F)c(=O)[nH]1", "EC50": "4.15 µM"}

* * *

- measuredOn: Stimulator of interferon genes protein (Homo sapiens, UniProt Q86WV6)
- Sequence (Q86WV6 whole entry): as the sequence (Q86WV6 whole entry R293Q) above, with Q293R counted along it
- procedureSummary: Agonist activity at wild type STING (unknown origin) expressed in HEK293T cells preincubated for 30 mins followed by washout and measured after 6.5 hrs by Bright-glo luciferase assay
- Type: cell-based
readoutType: EC50 (nM)

{"molecule": "Nc1ncnc2c1ncn2[C@@H]1O[C@@H]2/C=C/P(=O)(O)O[C@H]3C[C@H](n4cnc5c(N)ncnc54)O[C@@H]3COP(=O)(O)O[C@H]2[C@H]1F", "limitQualifier": ">", "assayValue": 200000}
{"molecule": "CC1(C(=O)OCOP2(=O)/C=C/[C@H]3O[C@@H](n4cnc5c(N)ncnc54)[C@H](F)[C@@H]3OP(=O)(OCOC(=O)C3(C)CCCCC3)OC[C@H]3O[C@@H](n4cnc5c(N)ncnc54)[C@H](F)[C@@H]3O2)CCCCC1 (stereo in doubt; 14A)", "limitQualifier": "=", "assayValue": 500}
{"molecule": "CC1(C(=O)OCOP2(=O)/C=C/[C@H]3O[C@@H](n4cnc5c(N)ncnc54)[C@H](F)[C@@H]3OP(=O)(OCOC(=O)C3(C)CCCCC3)OC[C@H]3O[C@@H](n4cnc5c(N)ncnc54)[C@H](F)[C@@H]3O2)CCCCC1 (stereo in doubt; 14B)", "limitQualifier": "=", "assayValue": 225}
{"molecule": "Nc1ncnc2c1ncn2[C@@H]1O[C@@H]2/C=C\\P(=O)(O)O[C@H]3[C@@H](F)[C@H](n4cnc5c(N)ncnc54)O[C@@H]3COP(=O)(O)O[C@H]2[C@H]1F", "limitQualifier": "=", "assayValue": 50100}
